- ASSAY_SUMMARY: in vivo
- CONDITIONS_USED: female, CD-1, mouse, po, 10 mg/kg
METRIC_NAME: AUC(0-t) at 24 h (ng·h/mL)
Could you give me the number in ng·h/mL? Just the number is fine.

Qu. Name the recorded AUC(0-t) at 24 h for C=C(F)C(=O)Nc1ccc(-c2c(-c3ccc(Oc4nccc(C)n4)cc3)c(C(N)=O)c3cnc(C)cn23)c(F)c1 .
Ans. 2470
